Could you please report measured Paw edema % inhibition for the items listed next?
Tested on: carrageenan-induced rat paw edema
procedure text: Carrageenan-induced rat paw edema assay
Assay type: in vivo
reported conditions: 5 h after carrageenan, 50 mg/kg, rat
Numbers only, in %.

>  <molecule>
CCOC(=O)COc1ccc(C2=NN(c3ccc(S(C)(=O)=O)cc3)C(c3ccc(Br)cc3)C2)cc1 (stereo not shown) [Compound 15 h]

>  <Paw edema % inhibition / %>
59.3

$$$$
>  <molecule>
CCOC(=O)COc1ccc(C2=NN(c3ccc(S(C)(=O)=O)cc3)C(c3ccc(OC)cc3)C2)cc1 (stereo not shown) [Compound 15c]

>  <Paw edema % inhibition / %>
66.1

$$$$
>  <molecule>
CCOC(=O)COc1ccc(C2=NN(c3ccc(S(C)(=O)=O)cc3)C(c3cc(OC)c(OC)c(OC)c3)C2)cc1 (stereo not shown) [Compound 15d]

>  <Paw edema % inhibition / %>
40

$$$$

Lab note: next molecule to report on.
Q: Which Paw edema % inhibition reading was recorded for the molecule Cc1ccc(-c2cc(C(F)(F)F)nn2-c2ccc(S(N)(=O)=O)cc2)cc1 [Celecoxib, celecoxib, reference compound] ?
Ans: 56.3
